biological target: Aspartate--tRNA(Asp/Asn) ligase (Mycobacterium tuberculosis (strain ATCC 25618 / H37Rv)) (UniProt P9WFW3); test: Assay for Asp RNA synthetase-1 from Mycobacterium tuberculosis; format: functional; parameters: scale not given: direction of the effect not stated beside the values; details: 30 µM; further: in the data most compounds retested in dose-response had high values
Sequence (P9WFW3 whole entry): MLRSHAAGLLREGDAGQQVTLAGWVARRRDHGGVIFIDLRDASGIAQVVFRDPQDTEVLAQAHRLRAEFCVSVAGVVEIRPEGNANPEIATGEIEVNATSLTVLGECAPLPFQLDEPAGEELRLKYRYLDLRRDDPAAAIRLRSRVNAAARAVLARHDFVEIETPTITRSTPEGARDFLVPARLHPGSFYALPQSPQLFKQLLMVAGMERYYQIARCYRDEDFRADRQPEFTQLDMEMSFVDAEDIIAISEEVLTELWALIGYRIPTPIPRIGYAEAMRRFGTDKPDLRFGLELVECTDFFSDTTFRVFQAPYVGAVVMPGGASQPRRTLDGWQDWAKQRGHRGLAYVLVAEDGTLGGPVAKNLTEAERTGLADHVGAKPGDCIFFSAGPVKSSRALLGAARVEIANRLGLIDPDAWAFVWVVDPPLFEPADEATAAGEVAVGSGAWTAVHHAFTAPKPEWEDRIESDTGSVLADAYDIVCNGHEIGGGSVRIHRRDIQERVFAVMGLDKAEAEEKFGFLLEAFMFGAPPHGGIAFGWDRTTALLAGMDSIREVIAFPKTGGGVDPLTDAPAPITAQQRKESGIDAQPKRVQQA
Rule: measured Percent Effect below 4% gets rule met; anything equal to or greater than 4% gets rule not met.

These solved cases illustrate the format of a correct answer.
{"compound": "CN(Cc1cn2c(n1)CN(CC1CC1)CC2)Cc1ccco1", "qualitative label": "rule met"}
{"compound": "O=C(O)c1nnn(-c2ccc(OC(F)(F)F)cc2)c1-c1ccncc1", "qualitative label": "rule not met"}
{"compound": "CC(C)(C)c1nnc(CN2CCCC2c2noc(C3CC3)n2)o1 (stereo unspecified)", "qualitative label": "rule met"}
{"compound": "CC(=O)c1cc(CC(=O)NCc2ccc(CN(C)C)cc2)cs1", "qualitative label": "rule met"}
{"compound": "CCC(C)(C)NC(=O)C1CC(=O)N(CC2CC2)C1 (stereo unspecified)", "qualitative label": "rule not met"}

Moving on to the next compound.
Here's an entry: `CN(Cc1ccsc1)C(=O)Nc1cccnc1N1CCCC1` . Is its Percent Effect below 4%?
rule met

----------
molecular target: Shiga toxin 2 (Escherichia coli O157:H7) (UniProt P09385+P09386); assay: E. coli 0.157:H7 Shiga Toxin SOP - stx2 screening assay; format: functional; set-up: scale not given: direction of the effect not stated beside the values; conditions: 30 µM
The compounds listed here are annotated with their Percent Effect.
Your answer is read as %, so omit the unit and give the number.

{"compound": "Cc1cccc(N2Cc3nc(=O)[nH]n3C2=O)c1", "Percent Effect / %": -54.1}

Look at this compound and give its reported Percent Effect. `Cc1nc(-c2nnc[nH]2)sc1C(=O)N(Cc1cccnc1)C1CC1`
7.27

Look at this compound and give its reported Percent Effect. `Cc1ncnc2c1CCN(Cc1cccs1)CC2`
-21.2

Look at this compound and give its reported Percent Effect. O=C(Cc1cccc(F)c1)N1CCCCC1c1ccn2ccnc2n1 (stereo not given)
-7.82

Look at this compound and give its reported Percent Effect. `CCOc1ccc(C(=O)NS(=O)(=O)c2cncc(Br)c2)cc1OC`
-12

Look at this compound and give its reported Percent Effect. Cc1cn2nc(N3CCCC3Cn3nc(C)cc3C)sc2n1 (stereo not given)
-1.2

----------
target: Aspartate--tRNA(Asp/Asn) ligase (Mycobacterium tuberculosis (strain ATCC 25618 / H37Rv)) (UniProt P9WFW3); test: Assay for Asp RNA synthetase-1 from Mycobacterium tuberculosis; type: functional; design: scale not given: direction of the effect not stated beside the values; conditions: 30 µM; further: in the data most compounds retested in dose-response had high values
measurement kind: Percent Effect (%)
Your answer is read as %, so omit the unit and give the number.

{"compound": "Cc1nc(-c2ccco2)ccc1C(=O)N1CCCC1Cn1cccn1 (centres undefined)", "measurement kind": "Percent Effect", "units of measure": "%", "value reported": 0.0146}

Look at this compound and give its reported Percent Effect. `Cc1cccc2[nH]c(C3CCN(C(=O)c4ccnn4C)CC3)nc12`
-0.0892

----------
The molecules listed here are annotated with their Percent Effect.
molecular target: Shiga toxin 2 (Escherichia coli O157:H7) (UniProt P09385+P09386); test: E. coli 0.157:H7 Shiga Toxin SOP - stx2 screening assay; assay type: functional; set-up: scale not given: direction of the effect not stated beside the values; settings: 30 µM
Your answer is read as %, so omit the unit and give the number.

# example entries with known answers
{"molecule": "CCN(CC)C(=O)CCNC(=O)N1CCC(c2ccccc2)C1 (stereo unspecified)", "units of measure": "%", "value reported": -20.3}
{"molecule": "O=C(CS(=O)(=O)CC1CCCCC1)NC1CCCCNC1=O (stereo unspecified)", "units of measure": "%", "value reported": -23}
{"molecule": "CCCc1c(C(=O)NC2CCCC2)nnn1-c1ccc(OC)cc1", "units of measure": "%", "value reported": -4.2}

Look at this molecule and give its reported Percent Effect. COCCn1c2c(ccc1=O)CC(NS(C)(=O)=O)CC2 (stereo unspecified)
-20.6

Look at this molecule and give its reported Percent Effect. COc1ncc(C2CC(=O)NCc3nc4ccccn4c32)cn1 (stereo unspecified)
15

Look at this molecule and give its reported Percent Effect. CCCOc1ccc(CNC2CCCc3c2cnn3CC)cc1OC (stereo unspecified)
-22.9

----------
The compounds listed here are annotated with their Percent Effect.
biological target: Aspartate--tRNA(Asp/Asn) ligase (Mycobacterium tuberculosis (strain ATCC 25618 / H37Rv)) (UniProt P9WFW3); test: Assay for Asp RNA synthetase-1 from Mycobacterium tuberculosis; assay type: functional; design: scale not given: direction of the effect not stated beside the values; conditions: 30 µM; further: in the data most compounds retested in dose-response had high values
Your answer is read as %, so omit the unit and give the number.

# example entries with known answers
{"compound": "CCn1nc2c(cc1=O)CN(Cc1nc(-c3ccsc3)no1)CC2", "value reported": 5.03}
{"compound": "COCCCNc1nccc(-c2c[nH][nH]c2=O)n1", "value reported": 6.51}
{"compound": "CC(c1nc(C2CC2)no1)N1CCN(Cc2ccsc2)CC1 (configuration not stated)", "value reported": -4.63}
{"compound": "Cn1cccc1C(=O)N1CCCC2(CCCN2Cc2cccnc2)C1 (configuration not stated)", "value reported": 7.03}
{"compound": "CCc1ccc(O)c(C(=O)NC2CCN(C(=O)OC)CC2)c1", "value reported": -2.88}
{"compound": "O=C(c1cc[nH]n1)N1CCCC1C1CCN(Cc2ccccc2)CC1 (configuration not stated)", "value reported": 6.59}
{"compound": "CC(C(=O)N1CCC(Nc2cccnn2)CC1)n1ccnc1 (configuration not stated)", "value reported": 7.4}
{"compound": "COc1cccc(N2CCN(Cc3ccc(NC(C)=O)cc3)CC2=O)c1", "value reported": -1.75}

Look at this compound and give its reported Percent Effect. `Cn1c(Cn2ccnc2)nnc1C1CCN(Cc2cccnc2N)CC1`
-2.34

Look at this compound and give its reported Percent Effect. O=c1cccnn1CC1CN(Cc2ccsc2)Cc2nccn2C1 (configuration not stated)
7.43

Look at this compound and give its reported Percent Effect. CC(C)N(C)C(=O)C1=NOC2(CCN(C(=O)c3ccncc3)C2)C1 (configuration not stated)
-1.05

Look at this compound and give its reported Percent Effect. `CCn1nc(C)c(CCn2ccnc2-c2cc3n(n2)CCCNC3)c1C`
-1.76

----------
target: Shiga toxin 2 (Escherichia coli O157:H7) (UniProt P09385+P09386); assay: E. coli 0.157:H7 Shiga Toxin SOP - stx2 screening assay; format: functional; parameters: scale not given: direction of the effect not stated beside the values; conditions: 30 µM
measurement kind: Percent Effect
Respond with a number, then the unit of measure.

{"molecule": "CCN1CCCN(C(=O)c2cnc(OC(C)C)c(Cl)c2)CC1", "Percent Effect": "-50.8%"}
{"molecule": "c1ccc(C(OCCNC2CCc3ncnn3C2)c2ccccc2)cc1 (centres undefined)", "Percent Effect": "-14.7%"}
{"molecule": "Cc1cc(O)c(OCC(=O)/N=c2\\[nH]cc(C)s2)cn1", "Percent Effect": "-6.58%"}
{"molecule": "CCOC(=O)CNC(=O)c1cccnc1Oc1ccc(Cl)cc1", "Percent Effect": "6.74%"}

Look at this molecule and give its reported Percent Effect. `CC(C)n1cc(CN2CCCN(C(=O)c3cc(Cl)c[nH]3)CC2)cn1`
3.9%

Look at this molecule and give its reported Percent Effect. `CSc1ncccc1C(=O)N1CCC(c2nc3c(C)cccc3[nH]2)CC1`
-17.2%

Look at this molecule and give its reported Percent Effect. `CC(C)(C)c1ccc(C2(C(=O)NCCCS(C)(=O)=O)CC2)cc1`
-49.3%

Look at this molecule and give its reported Percent Effect. `COc1ccccc1CNC(=O)Cn1ncc2c1c(C)nn2C`
-20.2%

Look at this molecule and give its reported Percent Effect. `Cn1cc(CN2CCCN(C(=O)c3cc[nH]n3)CC2)cn1`
-19.9%

Look at this molecule and give its reported Percent Effect. `CC[C@@H](CO)NC(=O)c1coc(COc2ccc(OC)cc2)n1`
-5.46%

Look at this molecule and give its reported Percent Effect. `COCc1cccc(CNCc2c(C)nn(C)c2N(C)C)c1`
1.1%

Look at this molecule and give its reported Percent Effect. CCc1n[nH]c(C2CN(C(=O)c3cnns3)CCO2)n1 (centres undefined)
10.8%

Look at this molecule and give its reported Percent Effect. Cc1cc(C)n(CC2CN(Cc3nc(-c4ccco4)no3)CCO2)n1 (centres undefined)
-16.4%

Look at this molecule and give its reported Percent Effect. `Cc1ccc2c(ccn2CC(=O)NC[C@@H]2CCCN3CCCC[C@H]23)c1`
-7.12%

Look at this molecule and give its reported Percent Effect. `CN(CCC(F)(F)F)C(=O)[C@H]1CSCN1C(=O)OC(C)(C)C`
-17.7%

Look at this molecule and give its reported Percent Effect. CCn1cc(NC(=O)NCC(O)COc2cccc(F)c2)cn1 (centres undefined)
20.1%

Look at this molecule and give its reported Percent Effect. Cc1cc2n(n1)CC(CNCc1cnn(-c3ccccc3)c1)CN2 (centres undefined)
7.05%

Look at this molecule and give its reported Percent Effect. O=C1N(c2cncnc2)CCC12CCCN(Cc1ccccn1)C2 (centres undefined)
-38.2%

Look at this molecule and give its reported Percent Effect. `c1cc(CN2C[C@@H]3COC[C@]3(COCC3CC3)C2)ccn1`
-47.3%

Look at this molecule and give its reported Percent Effect. Cn1nc(C2CCCN(C(=O)CO)C2)cc1O (centres undefined)
10.4%
